- system_name: UniProtKB P62593
- assay_conditions: read-out: IC50 β-lactamase TEM-1; class (A); nitrocefin 200 μM, 30-min pre-incubation, enzyme 0.1 nM
Please assign false (0) whenever IC50 is at or above 0.7 nM, and true (1) whenever it is below.

Please review the following examples before continuing.
molecule="Cc1cc(C(N)=O)nn1C1=CC2CN(C1)C(=O)N2OS(=O)(=O)[O-].[Na+] (centres unmarked)" system_name="UniProtKB P62593" class_label="true (1)"
molecule="O=C1N2CC(n3ccnn3)=CC(C2)N1OS(=O)(=O)[O-].[Na+] (centres unmarked)" system_name="UniProtKB P62593" class_label="true (1)"
molecule="N#Cc1ccn(C2=CC3CN(C2)C(=O)N3OS(=O)(=O)[O-])n1.[Na+] (centres unmarked)" system_name="UniProtKB P62593" class_label="true (1)"
molecule="O=C1N2CC(n3ccc(-c4ncco4)n3)=CC(C2)N1OS(=O)(=O)[O-].[Na+] (centres unmarked)" system_name="UniProtKB P62593" class_label="true (1)"

Task item: Find out if reported IC50 for CN(C)C.NC(=O)CCc1nccn1C1=CC2CN(C1)C(=O)N2OS(=O)(=O)O (centres unmarked) is less than 0.7 nM
Reply: false (0)

Task item: Same for O=C(O)C(F)(F)F.O=C1N2CC(n3ccc(CNc4nccs4)n3)=CC(C2)N1OS(=O)(=O)[O-].[Na+] (centres unmarked)
Reply: false (0)

Task item: Same for O=C1N2CC(n3cc(N4CCOCC4)cn3)=CC(C2)N1OS(=O)(=O)[O-].[Na+] (centres unmarked)
Reply: false (0)
